Origin of measurements: patent US12479878B2

Experiment: Residual AcOH content (Megazyme K-ACETRM 07/12)
Assay type: physicochemical
Conditions: dried crystals
The following compounds are shown together with reported AcOH content values.
Express the result in wt % but write the number alone.

Sample records with AcOH content:
1) C[C@@H]1OC(O[C@H]2[C@H](O[C@H]3[C@H](O)[C@@H](O)C(O)O[C@@H]3CO)O[C@H](CO)[C@H](O)[C@@H]2O)[C@@H](O)[C@H](O)[C@@H]1O (single isomer, unassigned) [Example 3, 2′-O-fucosyllactose] | 0.11
2) C[C@@H]1OC(O[C@H]2[C@H](O[C@H]3[C@H](O)[C@@H](O)C(O)O[C@@H]3CO)O[C@H](CO)[C@H](O)[C@@H]2O)[C@@H](O)[C@H](O)[C@@H]1O (stereo partly shown) [WO 2016/095924, 2′-O-fucosyllactose, reference compound] | 0.58
3) C[C@@H]1OC(O[C@H]2[C@H](O[C@H]3[C@H](O)[C@@H](O)C(O)O[C@@H]3CO)O[C@H](CO)[C@H](O)[C@@H]2O)[C@@H](O)[C@H](O)[C@@H]1O (single isomer, unassigned) [Example 1, 2′-O-fucosyllactose] | 0.15

For the next question, use this compound.
Entry under test: C[C@@H]1OC(O[C@H]2[C@H](O[C@H]3[C@H](O)[C@@H](O)C(O)O[C@@H]3CO)O[C@H](CO)[C@H](O)[C@@H]2O)[C@@H](O)[C@H](O)[C@@H]1O (single isomer, unassigned) [Example 2, 2′-O-fucosyllactose] . Its AcOH content was 0.36

====

Experiment: Loss on drying of wet filter cake
Format: physicochemical
Conditions: unwashed solid wet filter cake dried overnight (14 hours) at 65° C. and 50 mbar
readoutName: LoD (loss on drying)
Just so you know, I need the unit written after the number.

Sample records with LoD (loss on drying):
1. C[C@@H]1OC(O[C@H]2[C@H](O[C@H]3[C@H](O)[C@@H](O)C(O)O[C@@H]3CO)O[C@H](CO)[C@H](O)[C@@H]2O)[C@@H](O)[C@H](O)[C@@H]1O (single isomer, unassigned) [Example 4, 2′-O-fucosyllactose] | 48.5%
2. C[C@@H]1OC(O[C@H]2[C@H](O[C@H]3[C@H](O)[C@@H](O)C(O)O[C@@H]3CO)O[C@H](CO)[C@H](O)[C@@H]2O)[C@@H](O)[C@H](O)[C@@H]1O (single isomer, unassigned) [Example 2, 2′-O-fucosyllactose] | 24.7%
3. C[C@@H]1OC(O[C@H]2[C@H](O[C@H]3[C@H](O)[C@@H](O)C(O)O[C@@H]3CO)O[C@H](CO)[C@H](O)[C@@H]2O)[C@@H](O)[C@H](O)[C@@H]1O (single isomer, unassigned) [Example 1, 2′-O-fucosyllactose] | 23.2%
4. C[C@@H]1OC(O[C@H]2[C@H](O[C@H]3[C@H](O)[C@@H](O)C(O)O[C@@H]3CO)O[C@H](CO)[C@H](O)[C@@H]2O)[C@@H](O)[C@H](O)[C@@H]1O (some centres unmarked) [WO 2016/095924, 2′-O-fucosyllactose, reference compound] | 52.9%

Entry under test: C[C@@H]1OC(O[C@H]2[C@H](O[C@H]3[C@H](O)[C@@H](O)C(O)O[C@@H]3CO)O[C@H](CO)[C@H](O)[C@@H]2O)[C@@H](O)[C@H](O)[C@@H]1O (single isomer, unassigned) [Example 3, 2′-O-fucosyllactose] . Its LoD (loss on drying) was 22.5%
